System: Oocyte
Method Summary: Induction of amplitude current in Xenopus laevis oocytes assessed as 2 fold increase in AMPA-induced current by voltage clamp method
Type: functional
# EC >= 20 µM gives 1, anything below gives -1

Would you please look over these solved cases?
                                   compound  classification
0        CCN1CNS(=O)(=O)c2cc(C(F)(F)F)ccc21               1
1       O=S1(=O)NCN(CCF)c2ccc(C(F)(F)F)cc21               1
2    CCN1CNS(=O)(=O)c2cc([N+](=O)[O-])ccc21              -1
3  NS(=O)(=O)c1cc2c(cc1Cl)NC(C1CC3C=CC1C3)NS2(=O)=O (configuration not stated) [CYCLOTHIAZIDE]              -1
4              O=S1(=O)NCN(CCF)c2ccc(F)cc21              -1
5              CCN1CNS(=O)(=O)c2cc(Cl)cnc21               1

### Prompt Could you please find out whether CCN1CNS(=O)(=O)c2cc(Br)ccc21 has EC that meets 20 µM or exceeds it?
### Response 1

### Prompt Decide: EC of O=[N+]([O-])c1ccc2c(c1)S(=O)(=O)NCN2CC(F)(F)F >= 20 µM?
### Response 1

### Prompt Is reported EC greater than or equal to 20 µM here: O=S1(=O)NCN(CCF)c2ccc(Br)cc21
### Response -1

### Prompt Hi, just wondering whether O=S1(=O)NCN(CC(F)(F)F)c2ccc(Cl)cc21 shows EC of 20 µM or higher.
### Response -1

### Prompt Please check the record O=S1(=O)N[C@H]2CCCN2c2ccccc21 and state if its EC is at or above 20 µM.
### Response 1

### Prompt Given the entry O=S1(=O)NCN(CCF)c2ccc(Cl)cc21 , answer whether its EC meets or surpasses 20 µM.
### Response -1

---

Method Summary: Dissociation constant, pKa of the compound
Type: physicochemical
Outcome Measure: pKa
Reply briefly: the number, and no unit.

Take a look at these entries with their results.
>>> df
                          structure_smiles  outcome_measure  result_value
0            O=S1(=O)NCN(CCF)c2ccc(Cl)cc21              pKa          9.35
1             CCN1CNS(=O)(=O)c2cc(Cl)ccc21              pKa          9.33
2  O=[N+]([O-])c1ccc2c(c1)S(=O)(=O)NCN2CCF              pKa          8.45

### Prompt What does the record list as pKa for O=S1(=O)NCN(CC(F)(F)F)c2ccc(Cl)cc21 ?
### Response 9.01

---

Tested on: Oocyte
Method Summary: Induction of amplitude current in Xenopus laevis oocytes assessed as 2 fold increase in AMPA-induced current by voltage clamp method
Type: functional
Outcome Measure: EC (µM)
Report the value in µM with no unit label.

Some compounds with known EC results, for comparison:
In [3]: df
Out[3]:
                          structure_smiles  system_tested  outcome_measure  result_value
0            COc1ccc2c(c1)S(=O)(=O)NCN2CCF         Oocyte               EC            71
1  O=[N+]([O-])c1ccc2c(c1)S(=O)(=O)NCN2CCF         Oocyte               EC            27
2             O=S1(=O)NCN(CCF)c2ccc(I)cc21         Oocyte               EC           120
3             CCN1CNS(=O)(=O)c2cc(OC)ccc21         Oocyte               EC            68
4            O=S1(=O)NCN(CCO)c2ccc(Cl)cc21         Oocyte               EC            54
5         O=S1(=O)NCN(CC(F)F)c2ccc(Cl)cc21         Oocyte               EC          13.5

### Prompt Sample CCN1CNS(=O)(=O)c2cc(C)ccc21 — what was its EC?
### Response 25

### Prompt State the recorded EC for this entry: Cc1ccc2c(c1)S(=O)(=O)NCN2CCF
### Response 47.5

### Prompt # query: EC of entry CCN1CNS(=O)(=O)c2cc(I)ccc21
### Response 95

The reported numbers originate from ChEMBL document CHEMBL1156916.
